Cited source: patent US20210347873A1

Target: T1, human APRIL protein (human, UniProt O75888 105-250, limits assumed)
T1 construct: Bought protein; also called recombinant APRIL protein
T1 sequence (looked up): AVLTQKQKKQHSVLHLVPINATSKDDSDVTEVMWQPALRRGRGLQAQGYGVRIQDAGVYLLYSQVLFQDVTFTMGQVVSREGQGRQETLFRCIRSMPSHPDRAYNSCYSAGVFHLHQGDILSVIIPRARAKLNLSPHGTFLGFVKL
Assay: ELISA, coated APRIL; antibody 13.3 nM

Binder: 8E7D9C7F5 (antibody, V domains shown) VH: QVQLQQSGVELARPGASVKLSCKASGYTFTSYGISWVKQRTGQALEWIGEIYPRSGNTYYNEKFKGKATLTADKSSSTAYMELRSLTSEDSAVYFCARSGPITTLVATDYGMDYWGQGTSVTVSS VL: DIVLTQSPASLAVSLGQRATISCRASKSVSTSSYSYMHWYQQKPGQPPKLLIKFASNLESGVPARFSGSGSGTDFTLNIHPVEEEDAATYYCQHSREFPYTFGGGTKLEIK
OD450 nm: 0.116
//
Binder: 97A3C2H4 (antibody, V domains shown, Mouse hybridoma antibody purified on Protein G) VH: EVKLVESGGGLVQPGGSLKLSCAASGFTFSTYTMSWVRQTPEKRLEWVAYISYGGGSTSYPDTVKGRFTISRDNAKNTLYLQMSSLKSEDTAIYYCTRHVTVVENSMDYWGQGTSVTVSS VL: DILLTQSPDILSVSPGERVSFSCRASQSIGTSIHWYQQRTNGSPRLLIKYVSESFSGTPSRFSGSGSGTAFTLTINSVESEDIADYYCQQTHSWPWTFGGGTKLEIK
OD450 nm: 0.0848
//
Binder: 20D1B6E9E5 (antibody, V domains shown) VH: EVQLQQSVAELVRPGASVKLSCTASDFNIKNTYIHWVKQRPEQGLEWIGRIDPVNGNTKYAPKFQDKATIIVDTYSNTAYLQLSSLASEDTAVYYCARWPITTIVATDWYFDVWGTGTTVTVSS VL: DVLMTQTQLALPVRLGEQASISCRSSQSIVNSNGNTYLEWYLQKPGQSPKLLIYKVSNRFSGVPDRFSGSGSGTDFTLKISRVEAEDLGVYYCFQGSHVPWTFGGGTKLEIK
OD450 nm: 0.257
